Values compiled from paper PMC7070036.

// %Activity, SIRT2 lookup, one value per entry
test target: UniProtKB Q8IXJ6
Sequence (Q8IXJ6 whole entry): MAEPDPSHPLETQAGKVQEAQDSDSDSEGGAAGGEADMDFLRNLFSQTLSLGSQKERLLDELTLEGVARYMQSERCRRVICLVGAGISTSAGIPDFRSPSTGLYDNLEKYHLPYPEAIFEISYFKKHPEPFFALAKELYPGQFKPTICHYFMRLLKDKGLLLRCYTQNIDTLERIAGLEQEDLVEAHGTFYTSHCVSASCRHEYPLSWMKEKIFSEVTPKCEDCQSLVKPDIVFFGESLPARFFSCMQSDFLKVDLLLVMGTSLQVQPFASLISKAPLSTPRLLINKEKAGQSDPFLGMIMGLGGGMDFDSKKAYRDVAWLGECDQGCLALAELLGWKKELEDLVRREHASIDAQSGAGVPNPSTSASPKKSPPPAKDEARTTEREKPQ
procedure details: Continuous fluorogenic sirtuin inhibition assay, SIRT2 (tBuK peptides, TB)
Type: biochemical
applied conditions: inhibitor 2 µM; single trials; 2 µM
Starred links: 1 amine or outer side, 2 acyl side, 3 side chain; linkers in the order of their positions; H or OH if unused. Non-standard residues stand in square brackets, D forms with d. Residues, ends and D or L forms follow the SMILES beside them. X1 = CCCC(=S)NCCCC[C@H](N[*:1])C(=O)[*:2]
# number only, unit % dropped from output

Here's what some known entries look like.
molecule	assay value
CCCC(=S)NCCCC[C@H](NC(=O)[C@@H](NC(=O)[C@@H](NC(=O)[C@H](CS)NC(C)=O)[C@@H](C)O)C(C)C)C(=O)N[C@H](C(N)=O)[C@@H](C)CC [Ac-S2P04-5-tBu] (Ac-CTV[X1]I-NH2)	4.8945
CCCC(=S)NCCCC[C@H](NC(=O)[C@H](Cc1ccccc1)NC(=O)[C@@H](NC(=O)[C@@H](N)CS)[C@@H](C)O)C(=O)N[C@H](C(=O)N1CCC[C@H]1C(=O)N[C@H](C(N)=O)[C@@H](C)O)C(C)C [S2P07-tBuK] (H-CTF[X1]VPT-NH2)	4.4406

Proceeding to the next molecule to report its %Activity, SIRT2.
Enquiry: Entry under review: CCCC(=S)NCCCC[C@H](NC(=O)[C@@H](NC(=O)[C@@H](NC(=O)[C@@H](N)CS)[C@@H](C)O)C(C)C)C(=O)N[C@H](C(N)=O)[C@@H](C)CC [S2P04-5-tBuK] (H-CTV[X1]I-NH2) . Reported %Activity, SIRT2?
Return: 6.0395
